Hi there, I'd appreciate the recorded protein stability index for every entry that follows.
Test system: Saccharomyces cerevisiae
Assay: protein stability index of tFT-peptide fusion (C-terminal peptide) (PSI (0-1 scale)); higher = more stable (slower turnover)
Conditions: genetic background: wild type; temperature: 30 C
One number for each entry.

Examples with answers:
Task item: Provide Saccharomyces cerevisiae protein stability index reading for SFVQLNGAVDLA .
Reply: 0.717

Task item: Provide Saccharomyces cerevisiae protein stability index reading for YVPTPSRPRRNR .
Reply: 0.718

Task item: Provide Saccharomyces cerevisiae protein stability index reading for HPPHFPTPFFSP .
Reply: 0.702

Task item: Provide Saccharomyces cerevisiae protein stability index reading for CGVGWGMVEGWR .
Reply: 0.691

Task item: Provide Saccharomyces cerevisiae protein stability index reading for RHSCLRFPPLHL .
Reply: 0.694

Quick request: protein stability index for each listed item, please.
1. PLSPPLPPAIPS
2. LPASWSRVSFAG

Reply:
1. 0.698
2. 0.682

Quick request: protein stability index for each listed item, please.
1. RLETKNITRKHI
2. LLPHALHVPFHL
3. PPCPSPPLFLPS

Reply:
0.681
0.707
0.687

====

System: Saccharomyces cerevisiae
Experiment: protein stability index of tFT-peptide fusion (C-terminal peptide) (PSI (0-1 scale)); higher = more stable (slower turnover)
Conditions: genetic background: das1 deletion; temperature: 30 C
Hi there, I'd appreciate the recorded protein stability index for every entry that follows.

Examples with answers:
Task item: Provide Saccharomyces cerevisiae protein stability index reading for DTCKSVLYCSTS [YMR193C-A C-terminal 12 aa] .
Reply: 0.694

Task item: Provide Saccharomyces cerevisiae protein stability index reading for NGYFGYAPGHYP [OPT2 C-terminal 12 aa] .
Reply: 0.684

Task item: Provide Saccharomyces cerevisiae protein stability index reading for PLKFPLPLKPPL [YHL034W-A C-terminal 12 aa] .
Reply: 0.715

Task item: Provide Saccharomyces cerevisiae protein stability index reading for KRRPYVRAHAKW [YGR051C C-terminal 12 aa] .
Reply: 0.709

Task item: Provide Saccharomyces cerevisiae protein stability index reading for IIEEKVRNYLNK [RIB5 C-terminal 12 aa] .
Reply: 0.696

Then there is this sequence:
Task item: Provide Saccharomyces cerevisiae protein stability index reading for QAADKRIDRNNP [SRD1 C-terminal 12 aa] .
Reply: 0.719

====

Hi there, I'd appreciate the recorded protein stability index for every entry that follows.
Tested on: Saccharomyces cerevisiae
Assay: protein stability index of tFT-peptide fusion (C-terminal peptide) (PSI (0-1 scale)); higher = more stable (slower turnover)
Details: genetic background: wild type; temperature: 37 C
Numbers only.

Examples with answers:
Task item: Quote protein stability index reported for RGFIFFALWSFC please.
Reply: 0.498

Task item: Quote protein stability index reported for HPRPRPPPLPPP please.
Reply: 0.494

Task item: Quote protein stability index reported for SFFCFFLSFFYL please.
Reply: 0.539

Quick request: protein stability index for each listed item, please.
1. GAVRRWGGVSFV
2. FFLLTCFLLPSV
3. MLIAISASAARF
4. GLYFFVVRIFKV
5. FVFAMSECIVLS
6. VRHPVVVVRRVI

Reply:
0.679
0.514
0.498
0.336
0.364
0.576

====

Test system: Saccharomyces cerevisiae
Assay: protein stability index of tFT-peptide fusion (C-terminal peptide) (PSI (0-1 scale)); higher = more stable (slower turnover)
Settings: genetic background: wild type; temperature: 30 C
Hi there, I'd appreciate the recorded protein stability index for every entry that follows.
One number for each entry.

Task item: Quote protein stability index reported for LFVMGSACPLRI please.
Reply: 0.681

Task item: Quote protein stability index reported for PGDFSWAQCLFP please.
Reply: 0.752

Task item: Quote protein stability index reported for PLAPSPPLPAFC please.
Reply: 0.693

Task item: Quote protein stability index reported for LVGLGGCLVGLR please.
Reply: 0.628

Task item: Quote protein stability index reported for SEIKKNKLTVMK please.
Reply: 0.677

Quick request: protein stability index for each listed item, please.
1. PPPLLPPTLPPR
2. VCGGLGCSVVLE
3. PPPPPPPLPSLR
4. SLDISDCGFCLH
5. PPPPLPPLSPSP
6. PPPPHPPRPPRP
7. CEHGGWYVGFCS

Reply:
0.713
0.721
0.671
0.697
0.76
0.676
0.7

====

Test system: Saccharomyces cerevisiae
Test: protein stability index of tFT-peptide fusion (C-terminal peptide) (PSI (0-1 scale)); higher = more stable (slower turnover)
Details: genetic background: wild type; temperature: 30 C
Hi there, I'd appreciate the recorded protein stability index for every entry that follows.
One number for each entry.

Examples with answers:
Task item: Quote protein stability index reported for SPTPLDPLRAPL please.
Reply: 0.69

Task item: Quote protein stability index reported for VYHCRLSQHRTL please.
Reply: 0.717

Task item: Quote protein stability index reported for VAWAQPSGSKAC please.
Reply: 0.697

Quick request: protein stability index for each listed item, please.
1. TAGAYSLSTGNH
2. CGGGCVVGAGWG
3. VGYGTGGAGGVE
4. SNPGGYCPQGVP
5. PSSPPSSTSPPL

Reply:
1. 0.651
2. 0.727
3. 0.766
4. 0.731
5. 0.633

Quick request: protein stability index for each listed item, please.
1. KENKKKKQRKLK
2. RQLPMHLTSPGT

Reply:
1. 0.774
2. 0.66

====

Test system: Saccharomyces cerevisiae
Assay: protein stability index of tFT-peptide fusion (C-terminal peptide) (PSI (0-1 scale)); higher = more stable (slower turnover)
Conditions: genetic background: wild type; temperature: 30 C
measurement-label: protein stability index
Answers are plain numbers.

Examples with answers:
Task item: Quote protein stability index reported for CRSGSVGGIRGR please.
Reply: 0.679

Task item: Quote protein stability index reported for DGPWGGVRAGEV please.
Reply: 0.717

Quick request: protein stability index for each listed item, please.
1. SPPFLPPLITFP
2. ARRAAPRRPPSD
3. GGFVISGDVTVG
4. GGGGGGGAWKGV
5. RDGIMTDDKRIS
6. TALSPPVPTLPP

Reply:
1. 0.681
2. 0.689
3. 0.688
4. 0.69
5. 0.707
6. 0.7

Quick request: protein stability index for each listed item, please.
1. VRPLPAPVQPHP
2. IHLTRGGNGHMD

Reply:
1. 0.741
2. 0.6

Quick request: protein stability index for each listed item, please.
1. GSCVVRKFGKRS
2. PLGCFQQDVYEK
3. DGPRPPRPSPVP
4. PAVPPGGDPTCP
5. AQCDAVPFMFCV
6. FFSVLSAISFFF
7. HLSDAGSPDGAN

Reply:
1. 0.681
2. 0.733
3. 0.699
4. 0.689
5. 0.663
6. 0.628
7. 0.628

====

Hi there, I'd appreciate the recorded protein stability index for every entry that follows.
System: Saccharomyces cerevisiae
Test: protein stability index of tFT-peptide fusion (C-terminal peptide) (PSI (0-1 scale)); higher = more stable (slower turnover)
Settings: genetic background: wild type; temperature: 37 C

Examples with answers:
Task item: Quote protein stability index reported for LFVSLSFVVFLP please.
Reply: 0.391

Task item: Quote protein stability index reported for LFNRCCTILVVW please.
Reply: 0.316

Quick request: protein stability index for each listed item, please.
1. RSAVECRVTNIR
2. FRSMFLFLNLLF
3. VGVVVAIGLVRM
4. RGFVVFCIPCFV
5. YFTNCYRSILTF

Reply:
[0.715, 0.574, 0.512, 0.401, 0.482]

Quick request: protein stability index for each listed item, please.
1. VFSGVTTILVRT
2. SVPIAFYLLFFQ
3. VVDIFLFFLFVC
4. GLLLLGIRLKWG
5. LSVRLYRTVFLV

Reply:
0.538
0.575
0.216
0.328
0.0864

====

Tested on: Saccharomyces cerevisiae
Assay: protein stability index of tFT-peptide fusion (C-terminal peptide) (PSI (0-1 scale)); higher = more stable (slower turnover)
Conditions: genetic background: wild type; temperature: 30 C
Rule: Fulfilled for protein stability index not less than 0.7, Not fulfilled for anything less.

Completed entries (count: 3):
Task item: // inclusive: protein stability index at least 0.7? input: VQNLIAAVMGEL [PNP1 C-terminal 12 aa]
Reply: Not fulfilled

Task item: // inclusive: protein stability index at least 0.7? input: DDEIDSEEDENA [SDD3 C-terminal 12 aa]
Reply: Not fulfilled

Task item: // inclusive: protein stability index at least 0.7? input: QPINLDSISDDL [DRE2 C-terminal 12 aa]
Reply: Fulfilled

New cases:
Task item: // inclusive: protein stability index at least 0.7? input: ISLWYKHNRVKG [YPR077C C-terminal 12 aa]
Reply: Not fulfilled

Task item: // inclusive: protein stability index at least 0.7? input: EGVGCRYPVVLI [YDR467C C-terminal 12 aa]
Reply: Not fulfilled
